molecular target: Fatty-acid amide hydrolase 1 (Homo sapiens, UniProt O00519); assay: Inhibition of human recombinant FAAH-mediated [3H]AEA hydrolysis after 10 mins by liquid scintillation assay
Sequence (O00519 whole entry): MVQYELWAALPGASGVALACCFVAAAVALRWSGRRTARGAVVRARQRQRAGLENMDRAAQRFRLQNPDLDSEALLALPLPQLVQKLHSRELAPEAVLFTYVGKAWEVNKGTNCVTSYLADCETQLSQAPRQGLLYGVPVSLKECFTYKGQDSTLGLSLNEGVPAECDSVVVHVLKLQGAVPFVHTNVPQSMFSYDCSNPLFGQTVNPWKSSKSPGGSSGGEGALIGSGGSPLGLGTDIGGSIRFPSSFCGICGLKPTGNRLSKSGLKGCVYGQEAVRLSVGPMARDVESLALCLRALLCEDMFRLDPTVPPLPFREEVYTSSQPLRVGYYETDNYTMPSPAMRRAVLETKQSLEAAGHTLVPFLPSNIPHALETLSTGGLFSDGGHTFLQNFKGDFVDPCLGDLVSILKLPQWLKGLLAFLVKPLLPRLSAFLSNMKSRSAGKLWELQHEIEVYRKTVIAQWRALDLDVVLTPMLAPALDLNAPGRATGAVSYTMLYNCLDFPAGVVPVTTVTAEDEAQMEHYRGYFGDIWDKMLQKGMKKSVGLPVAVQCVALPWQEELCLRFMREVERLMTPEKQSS
Assignment: determine reported pIC50 for the given compounds.
Numbers only, as −log10 of the molar value.

Examples with answers:
structure_notation=C=CCNC(=O)N1C[C@@H]([C@@H](C)OC(=O)NCCc2ccccc2)C1=O value=7.54
structure_notation=CCCSC(=O)N1C[C@@H]([C@@H](C)OC(=O)CCCc2ccccc2)C1=O value=7.92
structure_notation=C=CCCC(=O)N1C[C@@H]([C@@H](C)OC(=O)COCc2ccccc2)C1=O value=7.51

Shift focus to the following entry.
Request: Provide pIC50 value for the following compound: C=CCNC(=S)N1C[C@@H]([C@@H](C)OC(=O)COCc2ccccc2)C1=O
Response: 5.98

The measurements presented in this section are drawn from ChEMBL document CHEMBL2311346.
